METHOD NOTES: Cytotoxicity against human BT20 cells assessed as growth inhibition after 48 hrs by CCK8 assay
Type: functional, cell-based
EXPERIMENTAL SETUP: BT-20, 48 h
READOUT LABEL: pIC50
# pIC50: negative log10 of molar concentration; output just the value

pIC50 lookup needed for O=C1c2ccccc2-c2c1c(-c1ccccc1)nc1cccnc21 , thanks.
4.85

Next record, please: c1ccc2c(c1)Cc1c(-c3ccncc3)nc3cccnc3c1-2
4.48

Next record, please: CC[C@@]1(O)C(=O)OCc2c1cc1n(c2=O)Cc2cc3ccccc3nc2-1 [CAMPTOTHECIN]
7.15

Next record, please: c1ccc2c(c1)C[C@@H]1[C@H]2c2ncccc2N[C@@H]1c1ccncc1 (relative stereo)
4.61

Next record, please: Fc1ccc(-c2nc3cccnc3c3c2Cc2ccccc2-3)c(F)c1
4.40

Next record, please: O=[N+]([O-])c1ccc(-c2nc3cccnc3c3c2Cc2ccccc2-3)cc1
4.21

Next record, please: FC(F)(F)c1ccc([C@H]2Nc3cccnc3[C@H]3c4ccccc4C[C@H]32)cc1 (relative stereo)
4.19

Next record, please: Fc1cccc([C@H]2Nc3cccnc3[C@H]3c4ccccc4C[C@H]32)c1 (relative stereo)
4.81

====

Species: Homo sapiens
METHOD NOTES: Inhibition of human recombinant topoisomerase 1B expressed in Saccharomyces cerevisiae using plasmid DNA as substrate assessed as DNA relaxation at 100 uM preincubated with enzyme for 15 mins followed by substrate addition after 1 min by agarose gel electrophoresis
Calls of active or inactive are those of the source. The calls are words filed in the database; no cut-off is given here.
READOUT LABEL: inhibition

compound=c1ccc(-c2nc3cccnc3c3c2Cc2ccccc2-3)cc1 readout_label=inhibition recorded_value=Active
compound="OC1c2ccccc2-c2c1c(-c1ccc(C(F)(F)F)cc1)nc1cccnc21 (stereo not drawn)" readout_label=inhibition recorded_value=Active
compound=O=C1c2ccccc2-c2c1c(-c1ccc(C(F)(F)F)cc1)nc1cccnc21 readout_label=inhibition recorded_value=Active

====

METHOD NOTES: Inhibition of human recombinant topoisomerase 1B expressed in Saccharomyces cerevisiae using plasmid DNA as substrate assessed as DNA relaxation at 25 uM preincubated with enzyme for 15 mins followed by substrate addition after 50 secs by agarose gel electrophoresis
Calls of active or inactive are those of the source. The calls are words filed in the database; no cut-off is given here.
READOUT LABEL: inhibition

compound="FC(F)(F)c1ccc([C@H]2Nc3cccnc3[C@H]3c4ccccc4C[C@H]32)cc1 (relative stereo)" recorded_value=Active
compound="Fc1cccc([C@H]2Nc3cccnc3[C@H]3c4ccccc4C[C@H]32)c1 (relative stereo)" recorded_value=Active
compound=O=C1c2ccccc2-c2c1c(-c1ccccc1)nc1cccnc21 recorded_value=Active
compound=c1ccc(-c2nc3cccnc3c3c2Cc2ccccc2-3)cc1 recorded_value=Active
compound=Fc1cccc(-c2nc3cccnc3c3c2Cc2ccccc2-3)c1 recorded_value=Active

inhibition lookup needed for OC1c2ccccc2-c2c1c(-c1ccc(C(F)(F)F)cc1)nc1cccnc21 (configuration not stated) , thanks.
Active

Next record, please: O=C1c2ccccc2-c2c1c(-c1cccc(F)c1)nc1cccnc21
Active

====

Species: Homo sapiens
METHOD NOTES: Inhibition of human recombinant topoisomerase 1B expressed in Saccharomyces cerevisiae using plasmid DNA as substrate assessed as DNA relaxation at 100 uM preincubated with enzyme for 15 mins followed by substrate addition after 3 min by agarose gel electrophoresis
Activity calls are given as the source filed them. The rule behind the calls is not given here.
Thanks in advance; please answer with one of these: Yes = active, No = inactive

Please state the recorded outcome for this compound: O=[N+]([O-])c1ccc(-c2nc3cccnc3c3c2Cc2ccccc2-3)cc1
Yes

Next record, please: O=C1c2ccccc2-c2c1c(-c1cccc(F)c1)nc1cccnc21
Yes

Next record, please: c1ccc(-c2nc3cccnc3c3c2Cc2ccccc2-3)cc1
Yes

Next record, please: c1ccc2c(c1)Cc1c(-c3ccncc3)nc3cccnc3c1-2
Yes

Next record, please: c1ccc([C@H]2Nc3cccnc3[C@H]3c4ccccc4C[C@H]32)cc1 (relative stereo)
Yes

Next record, please: O=[N+]([O-])c1ccc([C@H]2Nc3cccnc3[C@H]3c4ccccc4C[C@H]32)cc1 (relative stereo)
Yes

Next record, please: O=C1c2ccccc2-c2c1c(-c1ccc(F)c(F)c1)nc1cccnc21
Yes

Next record, please: OC1c2ccccc2-c2c1c(-c1ccc(C(F)(F)F)cc1)nc1cccnc21 (configuration not stated)
Yes

Next record, please: Fc1ccc([C@H]2Nc3cccnc3[C@H]3c4ccccc4C[C@H]32)cc1F (relative stereo)
Yes

Next record, please: Fc1ccc(-c2nc3cccnc3c3c2Cc2ccccc2-3)cc1F
Yes

Next record, please: O=C1c2ccccc2-c2c1c(-c1ccc(C(F)(F)F)cc1)nc1cccnc21
Yes

Next record, please: Fc1cccc(-c2nc3cccnc3c3c2Cc2ccccc2-3)c1
Yes

Next record, please: OC1c2ccccc2-c2c1c(-c1ccccc1)nc1cccnc21 (configuration not stated)
Yes

Next record, please: Fc1ccc([C@H]2Nc3cccnc3[C@H]3c4ccccc4C[C@H]32)c(F)c1 (relative stereo)
Yes

Next record, please: Fc1cccc([C@H]2Nc3cccnc3[C@H]3c4ccccc4C[C@H]32)c1 (relative stereo)
Yes

Next record, please: CC[C@@]1(O)C(=O)OCc2c1cc1n(c2=O)Cc2cc3ccccc3nc2-1
No

Next record, please: FC(F)(F)c1ccc(-c2nc3cccnc3c3c2Cc2ccccc2-3)cc1
Yes

Next record, please: c1ccc2c(c1)C[C@@H]1[C@H]2c2ncccc2N[C@@H]1c1ccncc1 (relative stereo)
Yes

Next record, please: Fc1ccc(-c2nc3cccnc3c3c2Cc2ccccc2-3)c(F)c1
Yes

Next record, please: FC(F)(F)c1ccc([C@H]2Nc3cccnc3[C@H]3c4ccccc4C[C@H]32)cc1 (relative stereo)
Yes

Next record, please: O=C1c2ccccc2-c2c1c(-c1ccc(F)cc1F)nc1cccnc21
Yes

Next record, please: O=C1c2ccccc2-c2c1c(-c1ccccc1)nc1cccnc21
Yes
